test: Compound 1 selectivity panel, buffer IC50; assay type: cell-based; conditions: Receptor CCR12
pIC50: −log10 of the molar value.
METRIC_NAME: pIC50

According to the records, this molecule C[C@@H](Nc1cc(C2CCN([C@H]3CCCN(CCC(=O)O)C3)CC2)ccc1Cl)c1ccc(Cl)cc1Cl [Compound 1] displays pIC50 of < 5.00

* * *

target: UniProt:P46092; test: Compound 1 selectivity panel, buffer IC50; details: Receptor CCR10
Sequence (P46092 whole entry): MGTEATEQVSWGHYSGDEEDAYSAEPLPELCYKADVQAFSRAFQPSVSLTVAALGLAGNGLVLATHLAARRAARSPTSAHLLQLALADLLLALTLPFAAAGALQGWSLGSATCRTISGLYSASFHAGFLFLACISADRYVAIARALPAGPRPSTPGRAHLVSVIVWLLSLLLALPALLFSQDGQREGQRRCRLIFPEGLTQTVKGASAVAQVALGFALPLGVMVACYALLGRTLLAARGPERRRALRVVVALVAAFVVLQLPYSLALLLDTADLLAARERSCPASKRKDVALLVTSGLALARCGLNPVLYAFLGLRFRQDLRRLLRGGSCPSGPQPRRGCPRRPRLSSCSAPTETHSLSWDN
pIC50: −log10 of the molar value.
METRIC_NAME: pIC50

So, C[C@@H](Nc1cc(C2CCN([C@H]3CCCN(CCC(=O)O)C3)CC2)ccc1Cl)c1ccc(Cl)cc1Cl [Compound 1] ? Its pIC50 was < 5.00

* * *

biological target: CCR5 (Homo sapiens); assay: Compound 1 selectivity panel, buffer IC50; conditions: Receptor CCR5
Sequence (P51681 whole entry, species assumed): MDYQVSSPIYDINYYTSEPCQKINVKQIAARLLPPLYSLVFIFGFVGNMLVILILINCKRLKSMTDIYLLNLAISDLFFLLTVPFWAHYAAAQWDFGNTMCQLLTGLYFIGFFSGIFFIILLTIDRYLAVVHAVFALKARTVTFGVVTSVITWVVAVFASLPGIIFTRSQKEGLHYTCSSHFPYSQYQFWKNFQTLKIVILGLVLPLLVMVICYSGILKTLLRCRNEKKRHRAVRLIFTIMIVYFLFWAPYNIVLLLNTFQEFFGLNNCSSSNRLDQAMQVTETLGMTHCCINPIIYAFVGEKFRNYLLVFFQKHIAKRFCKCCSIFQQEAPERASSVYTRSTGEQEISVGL
METRIC_NAME: IC50

The reported IC50 value, CCR5 (Homo sapiens), for `C[C@@H](Nc1cc(C2CCN([C@H]3CCCN(CCC(=O)O)C3)CC2)ccc1Cl)c1ccc(Cl)cc1Cl` reads > 10 µM

* * *

molecular target: CXCR6 (Homo sapiens); test: Compound 1 selectivity panel, buffer IC50; settings: Receptor CXCR6
Sequence (O00574 whole entry, species assumed): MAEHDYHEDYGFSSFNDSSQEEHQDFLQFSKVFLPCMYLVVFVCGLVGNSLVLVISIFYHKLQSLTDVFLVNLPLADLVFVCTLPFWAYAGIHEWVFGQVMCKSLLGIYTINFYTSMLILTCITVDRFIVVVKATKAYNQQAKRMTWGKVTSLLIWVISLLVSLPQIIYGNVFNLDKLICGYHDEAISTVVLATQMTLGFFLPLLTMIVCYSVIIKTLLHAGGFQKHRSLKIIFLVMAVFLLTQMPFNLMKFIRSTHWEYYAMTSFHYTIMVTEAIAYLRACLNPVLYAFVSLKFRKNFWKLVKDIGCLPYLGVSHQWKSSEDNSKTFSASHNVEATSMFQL
pIC50: −log10 of the molar value.
METRIC_NAME: pIC50

Fill in: CXCR6 (Homo sapiens) pIC50 for C[C@@H](Nc1cc(C2CCN([C@H]3CCCN(CCC(=O)O)C3)CC2)ccc1Cl)c1ccc(Cl)cc1Cl [Compound 1] = < 5.00

* * *

Molecular target: CCR4 (Homo sapiens)
Sequence (P51679 1-360): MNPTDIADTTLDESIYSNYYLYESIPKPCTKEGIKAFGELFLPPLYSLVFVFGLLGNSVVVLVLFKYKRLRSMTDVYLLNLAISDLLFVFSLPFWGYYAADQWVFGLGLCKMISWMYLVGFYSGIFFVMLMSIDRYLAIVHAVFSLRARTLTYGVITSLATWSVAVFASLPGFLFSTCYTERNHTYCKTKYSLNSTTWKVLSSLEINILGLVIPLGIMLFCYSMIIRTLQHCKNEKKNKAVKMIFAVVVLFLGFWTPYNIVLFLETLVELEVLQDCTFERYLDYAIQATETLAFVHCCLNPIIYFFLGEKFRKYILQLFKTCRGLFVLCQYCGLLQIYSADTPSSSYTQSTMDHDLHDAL
Assay: Compound 1 selectivity panel, buffer IC50
Type: cell-based
Conditions: Receptor CCR4; buffer
Description: The selectivity of Compound 1 was tested by determining the IC50 value against a diverse panel of receptors, enzymes, and ion channels. […] See, Table 1.
METRIC_NAME: IC50 (nM)
The reply should be a number in nM, with the unit left off.

Form field, IC50 with CCR4 (Homo sapiens), item `C[C@@H](Nc1cc(C2CCN([C@H]3CCCN(CCC(=O)O)C3)CC2)ccc1Cl)c1ccc(Cl)cc1Cl` : 2

* * *

molecular target: CXCR3 (Homo sapiens); assay: Compound 1 selectivity panel, buffer IC50; conditions: Receptor CXCR3
Sequence (P49682 whole entry, species assumed): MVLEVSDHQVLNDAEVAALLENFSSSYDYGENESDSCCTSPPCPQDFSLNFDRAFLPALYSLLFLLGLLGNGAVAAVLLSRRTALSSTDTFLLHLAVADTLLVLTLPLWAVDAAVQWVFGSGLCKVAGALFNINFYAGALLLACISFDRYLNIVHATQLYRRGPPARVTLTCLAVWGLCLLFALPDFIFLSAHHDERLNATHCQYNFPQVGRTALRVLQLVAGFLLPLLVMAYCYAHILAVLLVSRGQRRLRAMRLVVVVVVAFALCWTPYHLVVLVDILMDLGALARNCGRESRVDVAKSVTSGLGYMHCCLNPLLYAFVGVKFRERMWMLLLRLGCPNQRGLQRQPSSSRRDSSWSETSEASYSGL
METRIC_NAME: IC50

The compound `C[C@@H](Nc1cc(C2CCN([C@H]3CCCN(CCC(=O)O)C3)CC2)ccc1Cl)c1ccc(Cl)cc1Cl` showed IC50 equal to > 10 µM
